The measured values listed here are drawn from the supplement of paper PMC9112550.

tested on: Escherichia coli TOP10; test: shrunken log2 fold change of peptide-encoding DNA abundance (4.5 h post-induction vs induction); higher = less antimicrobial activity (less host growth inhibition); conditions: time post-induction: 4.5 h; library: site-saturation at positions 5, 18, 19, 20;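 further: peptides expressed intracellularly from a pBAD plasmid library in pooled LB shake-flask culture, induced with 0.3% L-arabinose, DNA abundance read by NGS, three biological replicates, DESeq2 with apeglm shrinkage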
Reported shrunken log2 fold change values for the following sequences.
measurement_label: shrunken log2 fold change

RRIRLRPPRLPRPRPRPGCSPRP	0.0547
RRIRNRPPRLPRPRPRPPESPRP	-0.000194
RRIRIRPPRLPRPRPRPSTPPRP	-0.373
RRIRFRPPRLPRPRPRPLQYPRP	-0.242
RRIRLRPPRLPRPRPRPMVTPRP	0.0098
RRIRCRPPRLPRPRPRPTNRPRP	-0.356
RRIRARPPRLPRPRPRPTIEPRP	0.225
RRIRYRPPRLPRPRPRPVGNPRP	-0.0681
RRIRTRPPRLPRPRPRPETDPRP	-0.0144
RRIRDRPPRLPRPRPRPRDKPRP	-0.0712
RRIRCRPPRLPRPRPRPWFYPRP	-0.758
RRIRFRPPRLPRPRPRPNDTPRP	-0.179
RRIRKRPPRLPRPRPRPAIAPRP	0.802
RRIRNRPPRLPRPRPRPRKVPRP	0.445
RRIRVRPPRLPRPRPRPFCVPRP	-0.0102
RRIRDRPPRLPRPRPRPDTHPRP	0.17
RRIRERPPRLPRPRPRPEIDPRP	-0.00826
RRIRGRPPRLPRPRPRPRIGPRP	0.779
RRIRPRPPRLPRPRPRPTYMPRP	-0.0483
RRIRTRPPRLPRPRPRPQTPPRP	0.25
RRIRKRPPRLPRPRPRPLDEPRP	0.0161
RRIRCRPPRLPRPRPRPGCKPRP	0.0416
RRIRDRPPRLPRPRPRPPGFPRP	0.348
RRIRPRPPRLPRPRPRPQWHPRP	-0.176
RRIRRRPPRLPRPRPRPCLCPRP	-0.00345
RRIRVRPPRLPRPRPRPDAYPRP	-0.056
RRIRDRPPRLPRPRPRPDSVPRP	-0.0148
RRIRFRPPRLPRPRPRPLDPPRP	0.0688
RRIRGRPPRLPRPRPRPTYNPRP	0.0375
RRIRPRPPRLPRPRPRPDELPRP	-0.0607
RRIRTRPPRLPRPRPRPTCSPRP	0.00373
RRIRERPPRLPRPRPRPNPGPRP	-0.55
RRIRPRPPRLPRPRPRPTERPRP	0.649
RRIRDRPPRLPRPRPRPLGKPRP	0.188
RRIRSRPPRLPRPRPRPYYEPRP	-0.628
RRIRERPPRLPRPRPRPMHGPRP	-0.00992
RRIRLRPPRLPRPRPRPFASPRP	-0.062
RRIRTRPPRLPRPRPRPAFFPRP	0.0542
RRIRPRPPRLPRPRPRPSGQPRP	-0.0898
RRIRMRPPRLPRPRPRPQACPRP	-0.12
RRIRFRPPRLPRPRPRPGRDPRP	0.0984
RRIRDRPPRLPRPRPRPKFDPRP	-0.0895
RRIRPRPPRLPRPRPRPYKTPRP	0.001
RRIRDRPPRLPRPRPRPLWNPRP	0.0619
RRIRYRPPRLPRPRPRPILVPRP	-0.237
RRIRDRPPRLPRPRPRPAYLPRP	-0.011
